Catalogue of IC50 readings, one per entry.
- Test system: L. infantum MHOM/TN/80/IPT1 promastigotes
- Method description: L. infantum promastigotes viability assay
- Assay type: cell-based, Leishmania infantum
- Run parameters: Leishmania infantum, 72 h, read-out: L. infantum MHOM/TN/80/IPT1 IC50 (95% CI), promastigotes, 72 h, MTS

Recorded results for 2 molecules are shown here.
CCOC(=O)c1cn(CC(c2cn(C)c3ccc(C)cc23)c2cn(C)c3ccc(C)cc23)c(C)c1C(=O)OC = > 20 µM
CCOC(=O)c1c(C(=O)OC)cn(CC(c2cn(C)c3cc(Br)ccc23)c2cn(C)c3cc(Br)ccc23)c1C = > 20 µM

Pending molecule:
Q: Return reported IC50; argument: Cc1cn(CC(c2cn(C)c3ccccc23)c2cn(C)c3ccccc23)nn1
A: < 8 µM

Entry source: paper PMC8717589
